target: GSTP1 C48 (P09211) (Homo sapiens); assay: Competitive isoTOP-ABPP, cell lysates; assay type: binding; conditions: 500 μm, in-vitro_ramos_231;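 as to isoTOP-ABPP reactivity profile ratio, P09211 C48: Heavy/light ratio DMSO over fragment-treated so higher means more cysteine engagement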
Sequence (P09211 whole entry, the tested form may be a part): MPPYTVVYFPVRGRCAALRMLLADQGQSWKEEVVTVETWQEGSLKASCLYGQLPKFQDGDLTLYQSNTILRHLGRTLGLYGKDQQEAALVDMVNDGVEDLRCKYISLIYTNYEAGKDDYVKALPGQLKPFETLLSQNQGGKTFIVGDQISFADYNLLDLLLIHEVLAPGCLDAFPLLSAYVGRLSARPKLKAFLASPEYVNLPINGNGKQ
Overview of reported isoTOP-ABPP reactivity profile ratio, P09211_C48 across a group of compounds:
Quick one: just the number, no unit, thanks!

Field: example entries. Status: answers known.
In [3]: df
Out[3]:
                                   compound  result_number
0  C=CC(=O)N1CCC(Cc2ccccc2)CC1 [compound 53]            2.3
1  O=C(CCl)NC1C(O)OC(CO)C(O)C1O (mixture of isomers) [compound 44]            0.9
2  CCCN(C(=O)CCl)c1c(N)n(CCC)c(=O)[nH]c1=O [compound 55]            1.4
3  C=CC(=O)N(c1ccccc1)C1CCCCC1 [compound 46]            1.0

Send back GSTP1 C48 (P09211) (Homo sapiens) isoTOP-ABPP reactivity profile ratio, P09211_C48 of O=C(CCl)Nc1ccc(-c2ccccc2)cc1 [compound 52] only.
1.0

----------
biological target: cysteines in MDA-MB-231 and Ramos cells (Homo sapiens, UniProt Q8TAQ2); experiment: Competitive isoTOP-ABPP in situ (fragment-treated cells); type: cell-based; details: 200 μM, insitu, 231
Sequence (Q8TAQ2 whole entry, the tested form may be a part): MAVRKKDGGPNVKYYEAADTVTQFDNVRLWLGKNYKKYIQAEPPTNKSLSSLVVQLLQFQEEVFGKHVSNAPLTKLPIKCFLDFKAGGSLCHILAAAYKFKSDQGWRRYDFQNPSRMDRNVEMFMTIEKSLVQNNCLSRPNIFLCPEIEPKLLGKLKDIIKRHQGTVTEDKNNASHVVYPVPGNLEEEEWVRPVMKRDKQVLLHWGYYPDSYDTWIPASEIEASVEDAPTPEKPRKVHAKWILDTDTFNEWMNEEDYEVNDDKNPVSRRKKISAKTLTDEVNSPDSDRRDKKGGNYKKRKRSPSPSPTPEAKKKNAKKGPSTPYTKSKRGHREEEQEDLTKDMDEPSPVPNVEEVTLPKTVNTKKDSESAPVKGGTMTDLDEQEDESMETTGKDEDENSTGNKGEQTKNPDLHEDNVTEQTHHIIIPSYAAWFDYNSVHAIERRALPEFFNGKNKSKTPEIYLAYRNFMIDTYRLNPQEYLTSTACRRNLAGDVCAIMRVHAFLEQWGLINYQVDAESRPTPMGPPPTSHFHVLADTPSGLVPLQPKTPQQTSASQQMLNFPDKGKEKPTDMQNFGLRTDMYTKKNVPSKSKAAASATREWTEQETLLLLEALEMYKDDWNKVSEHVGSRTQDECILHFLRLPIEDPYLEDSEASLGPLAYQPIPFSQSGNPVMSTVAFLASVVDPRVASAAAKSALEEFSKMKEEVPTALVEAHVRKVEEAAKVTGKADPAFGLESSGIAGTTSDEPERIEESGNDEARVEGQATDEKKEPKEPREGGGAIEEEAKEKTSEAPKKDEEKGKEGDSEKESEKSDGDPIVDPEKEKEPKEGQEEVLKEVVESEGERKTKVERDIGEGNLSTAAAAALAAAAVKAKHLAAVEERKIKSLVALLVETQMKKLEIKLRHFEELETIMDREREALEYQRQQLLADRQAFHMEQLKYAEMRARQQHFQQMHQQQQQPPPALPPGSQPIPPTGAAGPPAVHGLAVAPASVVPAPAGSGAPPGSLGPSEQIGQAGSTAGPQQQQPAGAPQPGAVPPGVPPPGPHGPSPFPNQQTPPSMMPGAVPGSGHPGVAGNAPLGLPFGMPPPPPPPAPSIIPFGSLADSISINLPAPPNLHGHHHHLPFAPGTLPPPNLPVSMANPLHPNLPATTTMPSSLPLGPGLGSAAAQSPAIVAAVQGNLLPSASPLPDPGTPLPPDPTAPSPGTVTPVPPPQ
MEASURED_PARAMETER: isoTOP-ABPP ratio Q8TAQ2_C145

>>> df
                                   compound                               measured_on  result
0  O=C(CCl)NC12CC3CC(CC(C3)C1)C2 [compound 21]  cysteines in MDA-MB-231 and Ramos cells (Homo sapiens, UniProt Q8TAQ2)     1.6

Kindly indicate its recorded isoTOP-ABPP ratio Q8TAQ2_C145. Item: Cc1ccc(C=C(C#N)C(=O)NCCN2CCOCC2)cc1 [compound 41]
1.2

Find the measured isoTOP-ABPP ratio Q8TAQ2_C145 of C=CC(=O)Nc1cc(F)c(N2CCN(C(=O)OC(C)(C)C)CC2)c(F)c1 [compound 38] and report it.
1.3

// fetch isoTOP-ABPP ratio Q8TAQ2_C145 given entry C=CC(=O)N(Cc1cccnc1)c1cc(C(F)(F)F)cc(C(F)(F)F)c1 [compound 31]
0.8

Please give the documented isoTOP-ABPP ratio Q8TAQ2_C145 of COc1ccccc1OCCNC(=O)CCl [compound 28]
0.9

----------
Reported isoTOP-ABPP reactivity ratio, Q9NYL2_C22 is given for each of the following molecules.
target: UniProt Q9NYL2; assay: Competitive isoTOP-ABPP, cell lysates; format: binding; conditions: 500 μm, in-vitro_ramos_231
Sequence (Q9NYL2 whole entry): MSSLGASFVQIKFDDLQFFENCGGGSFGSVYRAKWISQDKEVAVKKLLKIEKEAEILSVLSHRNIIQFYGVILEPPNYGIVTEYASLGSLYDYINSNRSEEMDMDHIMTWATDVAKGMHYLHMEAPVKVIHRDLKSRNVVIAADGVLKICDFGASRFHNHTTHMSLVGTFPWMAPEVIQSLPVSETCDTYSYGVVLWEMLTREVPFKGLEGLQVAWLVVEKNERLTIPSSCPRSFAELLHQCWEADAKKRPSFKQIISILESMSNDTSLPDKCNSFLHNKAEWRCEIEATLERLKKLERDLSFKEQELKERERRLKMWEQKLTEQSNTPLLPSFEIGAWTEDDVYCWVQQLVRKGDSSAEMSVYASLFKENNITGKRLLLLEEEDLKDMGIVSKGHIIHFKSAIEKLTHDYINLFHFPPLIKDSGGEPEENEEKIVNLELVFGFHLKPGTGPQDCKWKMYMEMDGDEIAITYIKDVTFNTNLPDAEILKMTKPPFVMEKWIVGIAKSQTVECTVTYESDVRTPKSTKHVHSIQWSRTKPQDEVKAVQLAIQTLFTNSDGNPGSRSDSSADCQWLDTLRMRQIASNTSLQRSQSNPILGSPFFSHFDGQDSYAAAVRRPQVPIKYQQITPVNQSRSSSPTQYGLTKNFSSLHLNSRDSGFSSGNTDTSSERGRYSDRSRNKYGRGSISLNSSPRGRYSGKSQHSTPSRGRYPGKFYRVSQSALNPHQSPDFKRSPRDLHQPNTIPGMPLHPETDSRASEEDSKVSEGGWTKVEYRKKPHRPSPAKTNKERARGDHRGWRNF
Please state the value as a number alone, without comment.

>>> print(df.to_string())
                                  structure     measured_on                        measured_parameter  result_number
0                CC(C)(C)c1cc(NC(=O)CCl)on1  UniProt Q9NYL2  isoTOP-ABPP reactivity ratio, Q9NYL2_C22            2.1
1  C=CC(=O)Nc1cc(F)c(N2CCN(C(=O)OC(C)(C)C)CC2)c(F)c1  UniProt Q9NYL2  isoTOP-ABPP reactivity ratio, Q9NYL2_C22            1.2
2       Cc1ccc(C=C(C#N)C(=O)NCCN2CCOCC2)cc1  UniProt Q9NYL2  isoTOP-ABPP reactivity ratio, Q9NYL2_C22            1.5

Kindly review the next molecule as well.
Determine from records and report isoTOP-ABPP reactivity ratio, Q9NYL2_C22 for O=C(CCl)N(Cc1ccc(F)cc1)C12CC3CC(CC(C3)C1)C2
0.8

----------
target: PRMT1 C109 (Q99873) (Homo sapiens, UniProt Q99873); assay: Competitive isoTOP-ABPP, cell lysates; assay type: binding; conditions: 500 μm, in-vitro_ramos
Sequence (Q99873 whole entry): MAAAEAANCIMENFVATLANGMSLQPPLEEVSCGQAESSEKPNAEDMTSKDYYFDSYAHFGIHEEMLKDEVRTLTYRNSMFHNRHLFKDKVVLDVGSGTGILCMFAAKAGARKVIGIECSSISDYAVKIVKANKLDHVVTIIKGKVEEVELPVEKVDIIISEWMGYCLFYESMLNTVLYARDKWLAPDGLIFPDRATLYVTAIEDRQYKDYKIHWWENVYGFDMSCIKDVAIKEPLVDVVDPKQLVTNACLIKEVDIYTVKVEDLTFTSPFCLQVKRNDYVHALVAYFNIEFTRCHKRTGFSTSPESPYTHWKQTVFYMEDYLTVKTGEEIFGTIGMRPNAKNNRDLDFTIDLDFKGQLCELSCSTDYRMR
Reported values of isoTOP-ABPP reactivity ratio, Q99873_C109 for individual entries
// print number alone

Record excerpt, results attached:
                                   molecule                               measured_on  result_number
0  O=C(CCl)N(Cc1ccc(F)cc1)C12CC3CC(CC(C3)C1)C2 [compound 34]  PRMT1 C109 (Q99873) (Homo sapiens, UniProt Q99873)            1.1
1  CC(C)(C)c1cc(NC(=O)CCl)on1 [compound 32]  PRMT1 C109 (Q99873) (Homo sapiens, UniProt Q99873)            1.8
2   C=CC(=O)Nc1cc(C)c(Br)cc1C [compound 40]  PRMT1 C109 (Q99873) (Homo sapiens, UniProt Q99873)            1.3
3  Cc1ccc(C=C(C#N)C(=O)NCCN2CCOCC2)cc1 [compound 41]  PRMT1 C109 (Q99873) (Homo sapiens, UniProt Q99873)            0.9
4  C=CC(=O)N(Cc1cccnc1)c1cc(C(F)(F)F)cc(C(F)(F)F)c1 [compound 31]  PRMT1 C109 (Q99873) (Homo sapiens, UniProt Q99873)            1.3
5  C=CC(=O)Nc1cc(F)c(N2CCN(C(=O)OC(C)(C)C)CC2)c(F)c1 [compound 38]  PRMT1 C109 (Q99873) (Homo sapiens, UniProt Q99873)            1.4
6  O=C(CCl)Nc1ccccc1C1CCCCCC1 [compound 35]  PRMT1 C109 (Q99873) (Homo sapiens, UniProt Q99873)            1.0
7  C=CC(=O)N1CCC(c2noc3ccc(F)cc23)CC1 [compound 37]  PRMT1 C109 (Q99873) (Homo sapiens, UniProt Q99873)            1.0

Please supply the value of reported isoTOP-ABPP reactivity ratio, Q99873_C109 for the item CCN(CC)c1ccc(S(N)(=O)=O)cc1NC(=O)CCl [compound 30]
1.8

----------
target: cysteines in MDA-MB-231 and Ramos cells (Homo sapiens); experiment: Competitive isoTOP-ABPP in situ (fragment-treated cells); assay type: cell-based; conditions: 200 μM, insitu, 231
Form field: isoTOP-ABPP ratio, cysteine P52948_C1312 (one value per entry).
The reply should be a number, written without any unit.

Take a look at these entries with their results.
In [3]: df
Out[3]:
                              structure                        measured_parameter  result_number
0  O=C(CCl)N1CCN(S(=O)(=O)c2ccccc2F)CC1  isoTOP-ABPP ratio, cysteine P52948_C1312           20.0
1         O=C(CCl)NC12CC3CC(CC(C3)C1)C2  isoTOP-ABPP ratio, cysteine P52948_C1312            1.1
2   O=C(CCl)NC(=O)NC12CC3CC(CC(C3)C1)C2  isoTOP-ABPP ratio, cysteine P52948_C1312           20.0

Read the entry O=C(CCl)NCCc1c[nH]c2ccccc12 and write its reported isoTOP-ABPP ratio, cysteine P52948_C1312.
1.2

----------
molecular target: cysteines in MDA-MB-231 and Ramos cells (Homo sapiens, UniProt P24752); assay: Competitive isoTOP-ABPP in situ (fragment-treated cells); format: cell-based; conditions: 200 μM, insitu, 231
// reported isoTOP-ABPP ratio, P24752_C196 for each item listed
Give a plain numeric answer without units written out.

Take a look at these entries with their results.
                                   molecule  result_number
0  Cc1ccc(C=C(C#N)C(=O)NCCN2CCOCC2)cc1 [compound 41]            0.9
1  O=C(CCl)N1CCN(S(=O)(=O)c2ccccc2F)CC1 [compound 10]            5.1
2  O=C(CCl)NC(=O)NC12CC3CC(CC(C3)C1)C2 [compound 12]            4.6
3  O=C(CCl)NC12CC3CC(CC(C3)C1)C2 [compound 21]            1.5

Now let's try a different one.
Please report the measured isoTOP-ABPP ratio, P24752_C196 for C=CC(=O)Nc1cc(F)c(N2CCN(C(=O)OC(C)(C)C)CC2)c(F)c1 [compound 38]
1.0

----------
Biological target: ACAT1 C196 (P24752) (Homo sapiens, UniProt P24752)
Sequence (P24752 34-427): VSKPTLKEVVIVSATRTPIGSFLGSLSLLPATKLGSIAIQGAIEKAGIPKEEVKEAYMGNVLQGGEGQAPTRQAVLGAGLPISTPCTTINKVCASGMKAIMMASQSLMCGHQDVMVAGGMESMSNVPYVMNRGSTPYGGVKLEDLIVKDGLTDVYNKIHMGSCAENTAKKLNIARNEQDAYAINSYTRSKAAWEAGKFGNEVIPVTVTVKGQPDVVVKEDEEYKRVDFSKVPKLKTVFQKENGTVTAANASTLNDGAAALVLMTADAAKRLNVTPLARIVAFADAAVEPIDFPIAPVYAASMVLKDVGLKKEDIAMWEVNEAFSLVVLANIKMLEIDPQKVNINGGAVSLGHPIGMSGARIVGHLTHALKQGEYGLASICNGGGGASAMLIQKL
Experiment: Competitive isoTOP-ABPP, cell lysates
Assay type: binding
Settings: 500 μm, in-vitro_ramos_231
MEASURED_PARAMETER: isoTOP-ABPP reactivity ratio, P24752_C196
Write the value as a bare number.

These recorded examples may help you get a feel for the data.
>>> print(df.to_string())
                                   compound  result_number
0  Cc1ccc(C=C(C#N)C(=O)NCCN2CCOCC2)cc1 [compound 41]            1.3
1   C=CC(=O)Nc1cc(C)c(Br)cc1C [compound 40]            0.8
2  O=C(CCl)Nc1ccccc1C1CCCCCC1 [compound 35]            0.9
3  CC(C)(C)c1cc(NC(=O)CCl)on1 [compound 32]            2.3

Then there is this compound:
Query isoTOP-ABPP reactivity ratio, P24752_C196 for O=C(CCl)N(Cc1ccc(F)cc1)C12CC3CC(CC(C3)C1)C2 [compound 34]
0.8

Hey, just so you know, these numbers are from patent US10670605B2.
